- EXPERIMENT: Drug metabolism in Cyp2a5-null B6 mouse olfactory mucosa microsomes assessed as rate of disappearance of compound at 5 uM after 15 mins
- Type: ADME
- PARTICULARS: B6 (C57BL/6), read-out: Drug metabolism

| COMPOUND | metabolised at 0.25 h, 5 µM (%) |
| --- | --- |
| Cn1cc[nH]c1=S [METHIMAZOLE] | 28.7 |

====

- EXPERIMENT: Drug metabolism in wild-type mouse olfactory mucosa microsomes assessed as rate of disappearance of compound at 5 uM after 15 mins
- Format: ADME
- PARTICULARS: read-out: Drug metabolism

| STRUCTURE SMILES | metabolised at 0.25 h, 5 µM (%) |
| --- | --- |
| Cn1cc[nH]c1=S | 58.7 |

Provenance of the data: ChEMBL document CHEMBL3525940
